For each entry below, report its CHOLESTEROL value.
Organism: Rattus norvegicus
Assay: DrugMatrix - Regimen: Daily Repeat
Format: toxicity, organism-based, Sprague-Dawley
Design: regimen Daily Repeat, gender Male, age 6-8 weeks
Conditions: in vivo, po, 1500 mg/kg, 72 h, tissue Plasma, route oral GAVAGE, dose level High, time 3 day, vehicle .5 % CMC
Entry rule: numbers only, all in mg/dL.

stdin: Give a short answer stating reported CHOLESTEROL for NS(=O)(=O)c1cc2c(cc1Cl)NCNS2(=O)=O [HYDROCHLOROTHIAZIDE] .
stdout: 70.67

stdin: Report measured CHOLESTEROL; entry is COC(=O)c1ccc(O)cc1 [METHYLPARABEN]
stdout: 67.67

stdin: Dear colleague, please send me the reported CHOLESTEROL for CCOC(=O)[C@H](CCc1ccccc1)N[C@@H](C)C(=O)N1[C@H](C(=O)O)C[C@@H]2CCC[C@@H]21 when you can.
stdout: 56.67

Data origin: ChEMBL document CHEMBL3885881
